AC50 listing for selected molecules.
Measured target: human PAH with the R408W mutation (Homo sapiens, UniProt P00439, R408W)
Construct: expressed in transfected cells
Sequence (P00439 1-452 R408W): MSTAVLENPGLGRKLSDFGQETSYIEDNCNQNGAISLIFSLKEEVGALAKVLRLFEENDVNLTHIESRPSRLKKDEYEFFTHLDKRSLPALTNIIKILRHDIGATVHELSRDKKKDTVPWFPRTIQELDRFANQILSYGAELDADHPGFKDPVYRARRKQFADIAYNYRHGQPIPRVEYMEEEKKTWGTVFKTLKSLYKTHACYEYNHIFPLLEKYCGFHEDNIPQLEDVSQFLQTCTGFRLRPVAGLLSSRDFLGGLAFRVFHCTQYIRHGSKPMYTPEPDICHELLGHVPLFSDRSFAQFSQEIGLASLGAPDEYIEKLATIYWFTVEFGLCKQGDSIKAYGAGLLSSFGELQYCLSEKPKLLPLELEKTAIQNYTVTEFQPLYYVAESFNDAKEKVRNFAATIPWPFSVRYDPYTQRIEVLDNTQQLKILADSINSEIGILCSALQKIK
Experiment summary: Cell Based Phenylalanine Flux Assay;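 also: after compound treatment, cells received sepiapterin plus isotope-labelled Phenylalanine for 4 hours, then labelled Tyrosine in the medium was quantified, 10-point 2-fold dilution series run in duplicate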
Experimental conditions: A375 cells expressing human PAH R408W; 24 hrs compound incubation; 13C-Tyrosine by LC-MS; average where tested multiple times; read-out: AC50

{"columns": ["Smi", "AC50"],
 "data": [
  ["Cc1cccc2cc([C@@H]3c4nc[nH]c4CCN3C(=O)c3ocnc3C3CC3)nn12", "< 500 nM"],
  ["Cc1cccn2nc([C@@H]3c4nc[nH]c4CCN3c3nnc(C(C)(F)F)o3)cc12", "< 500 nM"],
  ["O=C(c1nc2ccccc2o1)N1CCc2[nH]cnc2[C@@H]1c1cc2c(F)cccn2n1", "> 5000 nM"],
  ["Nc1cnc(N2CCc3[nH]cnc3[C@H]2c2cc3c(Cl)cccn3n2)nc1", "500 to 1000 nM"],
  ["Cn1cc(-c2nnc(C(=O)N3CCc4[nH]cnc4[C@H]3c3cc4c(Br)cccn4n3)o2)cn1", "< 500 nM"],
  ["Cn1nc(C(F)(F)F)nc1C(=O)N1CCc2[nH]cnc2[C@H]1c1cc2ccccn2n1", "1000 to 5000 nM"],
  ["FC(F)(F)c1cccn2nc([C@@H]3c4nc[nH]c4CCN3c3nnc(-c4cnccn4)o3)cc12", "1000 to 5000 nM"],
  ["COc1ccc2c(C(=O)N3CCc4[nH]cnc4[C@H]3c3cc4c(C)cccn4n3)cnn2c1", "1000 to 5000 nM"]
]}
